Assay: Short term HFD mouse model: plasma and liver exposure
Format: in vivo, mice (C57BL/6J)
Conditions: HFD mice, three oral doses of 20 mg/kg, 4 h after last dose
PROPERTY: liver exposure 4 h

{"CPD_SMILES": "N#Cc1sccc1-c1c(-c2cccc(-c3ccc(C(=O)O)cc3Cl)c2)n(S(=O)(=O)c2ccc(C(F)(F)F)nc2)c2ccc(F)cc12", "RESULT": "C (1 μM to ≤10 μM)"}
{"CPD_SMILES": "N#Cc1ccccc1-c1c(-c2cccc(-c3ccc(C(=O)O)cc3Cl)c2)n(S(=O)(=O)c2ccc(C(F)F)cc2)c2ccc(F)cc12", "RESULT": "C (1 μM to ≤10 μM)"}
